OD at 490 nm values by entry
target: T1, Full length recombinant HBcAg (rHBcAg) encompassing residues 1-183 (hepatitis B virus, UniProt P03146 1-183); assay: EIA, support-bound peptide, HBcAg 5 ug/ml
T1 construct: range 1-183; also called hepatitis B virus core antigen
T1 sequence (P03146 whole entry, the tested form may be a part): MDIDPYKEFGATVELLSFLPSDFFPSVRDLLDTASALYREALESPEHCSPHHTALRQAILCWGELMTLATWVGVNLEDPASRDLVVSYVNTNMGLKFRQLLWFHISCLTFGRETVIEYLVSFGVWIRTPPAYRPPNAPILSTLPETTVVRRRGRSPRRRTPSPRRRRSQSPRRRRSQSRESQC
Provide the reading as a plain figure in OD.

# count of solved cases: 6
Binder: KLSCKASGYIFTS [KLSCKASGYIFTS (SEQ. ID. No. 45)]
Measured attribute: OD at 490 nm
Value observed: 3.69

Binder: SYMHWY [SYMHWY (SEQ. ID. No. 65)]
Measured attribute: OD at 490 nm
Value observed: 0.218

Binder: SCRASQSVSTSSYSYMHWY [SCRASQSVSTSSYSYMHWY (SEQ. ID. No. 53)]
Measured attribute: OD at 490 nm
Value observed: 1.45

Binder: ASGYIFTS [ASGYIFTS (SEQ. ID. No. 50)]
Measured attribute: OD at 490 nm
Value observed: 0.407

Binder: KPGASVKLSCKASGYIFTS [KPGASVKLSCKASGYIFTS (SEQ. ID. No. 39)]
Measured attribute: OD at 490 nm
Value observed: 1.34

Binder: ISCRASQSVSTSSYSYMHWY [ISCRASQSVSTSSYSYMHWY (SEQ. ID. No. 17)]
Measured attribute: OD at 490 nm
Value observed: 1.94

q: // returns reported OD at 490 nm for input YSYMHWY [YSYMHWY (SEQ. ID. No. 64)]
a: 0.245

q: Another binder to check: ASQSVSTSSYSYMHWY [ASQSVSTSSYSYMHWY (SEQ. ID. No. 56)]
a: 0.324

q: Another binder to check: CRASQSVSTSSYSYMHWY [CRASQSVSTSSYSYMHWY (SEQ. ID. No. 54)]
a: 1.42

q: Another binder to check: QSVSTSSYSYMHWY [QSVSTSSYSYMHWY (SEQ. ID. No. 58)]
a: 0.282

q: Another binder to check: SCKASGYIFTS [SCKASGYIFTS (SEQ. ID. No. 47)]
a: 0.297

q: Another binder to check: SSYSYMHWY [SSYSYMHWY (SEQ. ID. No. 63)]
a: 0.311

q: Another binder to check: SQSVSTSSYSYMHWY [SQSVSTSSYSYMHWY (SEQ. ID. No. 57)]
a: 0.31
